Values from ChEMBL document CHEMBL4033677

growth at 10 µM values for the compounds below.
System: NCI-H522
Experiment: Growth inhibition of human NCI-H522 cells assessed as cell growth at 10^-5 M incubated for 48 hrs by sulforhodamine B assay relative to control
Assay type: functional
Details: NCI-H522, 48 h, read-out: Activity
Please reply with the bare figure in % and do not write the unit itself.

GET /value?item= `Cc1nc(Nc2ccc(OCCCBr)cc2)c2cnn(-c3ccccc3)c2n1` &field=growth at 10 µM returns 81.6

Record summary for `BrCCCOc1ccc(Nc2ncnc3c2cnn3-c2ccccc2)cc1` : reported growth at 10 µM = 78.4

growth at 10 µM reading for `Cc1nn(-c2ccccc2)c2ncnc(Nc3ccc(OCCCBr)cc3)c12` : 45.6

// sample `Cc1nc(Nc2ccc(OCCCBr)cc2)c2c(C)nn(-c3ccccc3)c2n1` , its growth at 10 µM was 76.1

---

Tested on: MCF7
Assay: Growth inhibition of human MCF7 cells assessed as cell growth at 10^-5 M incubated for 48 hrs by sulforhodamine B assay relative to control
Format: functional
Conditions: MCF7, 48 h, read-out: Activity
measurement-type: growth at 10 µM
Write the numeric value and follow it with the unit.

These solved cases illustrate the format of a correct answer.
Cc1nn(-c2ccccc2)c2ncnc(Nc3ccc(OCCCBr)cc3)c12	93.8%
Cc1nc(Nc2ccc(OCCCBr)cc2)c2c(C)nn(-c3ccccc3)c2n1	90.3%
Cc1nc(Nc2ccc(OCCCBr)cc2)c2cnn(-c3ccccc3)c2n1	82.4%

Alright, here's another compound for you.
For reference, reported growth at 10 µM for `BrCCCOc1ccc(Nc2ncnc3c2cnn3-c2ccccc2)cc1` stands at 88.8%

---

System: SF-268
Assay: Growth inhibition of human SF268 cells assessed as cell growth at 10^-5 M incubated for 48 hrs by sulforhodamine B assay relative to control
Type: functional
Details: SF-268, 48 h, read-out: Activity
Readings of growth at 10 µM for the listed compounds
Entry rule: numbers only, all in %.

Examples with answers:
Cc1nn(-c2ccccc2)c2ncnc(Nc3ccc(OCCCBr)cc3)c12	103
Cc1nc(Nc2ccc(OCCCBr)cc2)c2cnn(-c3ccccc3)c2n1	86.9
Cc1nc(Nc2ccc(OCCCBr)cc2)c2c(C)nn(-c3ccccc3)c2n1	93.8

The compound listed as `BrCCCOc1ccc(Nc2ncnc3c2cnn3-c2ccccc2)cc1` has a reported growth at 10 µM of 86
